Target: UniProtKB P08581
Sequence (P08581 25-1390): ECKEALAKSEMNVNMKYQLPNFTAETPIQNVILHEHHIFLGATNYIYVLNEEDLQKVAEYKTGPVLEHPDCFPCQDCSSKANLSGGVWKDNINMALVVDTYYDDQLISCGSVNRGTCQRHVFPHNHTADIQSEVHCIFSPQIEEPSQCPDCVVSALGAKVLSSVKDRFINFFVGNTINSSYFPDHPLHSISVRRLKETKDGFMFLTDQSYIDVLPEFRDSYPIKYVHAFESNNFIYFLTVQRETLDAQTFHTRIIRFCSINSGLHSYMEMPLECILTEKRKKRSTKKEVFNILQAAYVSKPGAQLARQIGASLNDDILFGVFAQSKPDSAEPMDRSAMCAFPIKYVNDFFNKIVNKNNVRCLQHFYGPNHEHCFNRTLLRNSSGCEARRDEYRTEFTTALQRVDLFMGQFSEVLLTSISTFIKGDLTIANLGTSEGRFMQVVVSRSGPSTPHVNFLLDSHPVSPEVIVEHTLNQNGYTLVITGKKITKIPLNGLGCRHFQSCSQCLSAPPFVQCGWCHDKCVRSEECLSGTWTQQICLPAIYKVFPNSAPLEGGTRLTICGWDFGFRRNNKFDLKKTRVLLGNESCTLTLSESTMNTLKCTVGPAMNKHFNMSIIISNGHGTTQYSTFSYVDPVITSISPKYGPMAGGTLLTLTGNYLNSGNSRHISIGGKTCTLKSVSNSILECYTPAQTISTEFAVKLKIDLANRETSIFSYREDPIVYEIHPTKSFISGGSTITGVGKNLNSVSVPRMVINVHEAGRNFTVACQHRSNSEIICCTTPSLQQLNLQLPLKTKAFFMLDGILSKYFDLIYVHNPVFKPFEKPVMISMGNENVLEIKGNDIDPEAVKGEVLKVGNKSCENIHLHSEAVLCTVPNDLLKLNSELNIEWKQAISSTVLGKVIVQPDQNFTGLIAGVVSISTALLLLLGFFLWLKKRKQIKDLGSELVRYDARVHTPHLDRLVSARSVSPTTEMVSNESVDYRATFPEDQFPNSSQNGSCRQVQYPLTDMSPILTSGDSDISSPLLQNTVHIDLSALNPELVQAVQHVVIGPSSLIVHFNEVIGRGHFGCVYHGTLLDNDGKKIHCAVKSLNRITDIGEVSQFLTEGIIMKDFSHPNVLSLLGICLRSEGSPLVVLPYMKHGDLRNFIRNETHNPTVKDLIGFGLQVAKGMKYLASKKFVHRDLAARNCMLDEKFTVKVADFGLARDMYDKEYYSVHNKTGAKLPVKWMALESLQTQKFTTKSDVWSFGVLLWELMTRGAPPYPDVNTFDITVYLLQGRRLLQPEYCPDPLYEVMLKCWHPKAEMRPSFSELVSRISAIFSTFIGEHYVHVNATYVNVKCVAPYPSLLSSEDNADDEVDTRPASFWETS
Experiment: Met autophosphorylation ELISA in PC-3 cells
Assay type: cell-based
Conditions: cellular, HGF-stimulated, phospho-Met ELISA, read-out: c-Met IC50
Procedure: PC-3 prostate cancer cells (ATCC #CRL-1435) were seeded at 4×10^4 cells/well onto 24-well plates (Greiner #662165), in DMEM (Thermo Fisher #11995-040) containing 10% FBS (Thermo Fisher #26140-079), 1% MEM NEAA (Thermo Fisher #11140-050), 1% GlutaMax (Thermo Fisher #35050-061), and 1% Penicillin Streptomycin (Thermo Fisher #15140-122). […] IC50 values were calculated by nonlinear regression analysis using a 4-parameter logistic curve fit in ActivityBase XE (IDBS).
pIC50: −log10 of the molar value.
Please respond with reported pIC50 for every item in the list.

Use the examples below as a reference point.
COc1cc(Oc2ccnc3cc(OC)c(OC)nc23)ncc1NC(=O)C1(C(=O)Nc2ccc(F)cc2)CC1 | < 6.52
COCCOc1cc2nccc(Oc3ccc(NC(=O)C4(C(=O)Nc5ccc(F)cc5)CC4)cn3)c2nc1OC | 6.52 to 7.00
CNC(=O)c1cc2c(Oc3ncc(NC(=O)C4(C(=O)Nc5ccc(F)cc5)CC4)cc3F)ccnc2cc1OCCO | 7.00 to 8.00
COc1cc2nccc(Oc3ncc(NC(=O)C4(C(=O)Nc5ccc(F)cc5)CC4)cc3C)c2nc1OC | < 6.52
O=C(Nc1ccc(F)cc1)C1(C(=O)Nc2ccc(Oc3ccnc4cc5c(nc34)OCCO5)nc2)CC1 | < 6.52
COc1cc2nccc(Oc3ncc(NC(=O)C4(C(=O)Nc5ccc(F)cc5)CC4)cc3F)c2cc1C(=O)O | < 6.52

Continue with the next compound.
pIC50 for COc1cc2nccc(Oc3nc(C)c(NC(=O)C4(C(=O)Nc5ccc(F)cc5)CC4)cc3Br)c2nc1OC is < 6.52

meta.source: patent US11673897B2
